- Study Target: T1, RsbV-P (phosphorylated RsbV) (B. subtilis) (UniProt P17903)
- T1 sequence (chain, phosphoserine at 56 (32P)): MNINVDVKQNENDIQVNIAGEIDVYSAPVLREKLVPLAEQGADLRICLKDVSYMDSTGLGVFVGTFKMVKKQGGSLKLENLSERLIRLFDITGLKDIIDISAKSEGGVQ
Experimental Endpoint: kcat/KM of RsbV-P dephosphorylation (single turnover, 0.15 μM RsbV-P, 10 mM MnCl2) (μM^–1 min^–1)
State the answer as a number, implicitly in μM^–1 min^–1.

Check the records and state kcat/KM of RsbV-P dephosphorylation (single turnover, 0.15 μM RsbV-P, 10 mM MnCl2) for SpoIIE phosphatase domain (SpoIIE^590-827) (domain or fragment) SYRVSTGAAHAAKGGGLVSGDSYSMMELGARKYAAAISDGMGNGARAHFESNETIKLLEKILESGIDEKIAIKTINSILSLRTTDEIYSTLDLSIIDLQDASCKFLKVGSTPSFIKRGDQVMKVQASNLPIGIINEFDVEVVSEQLKAGDLLIMMSDGIFEGPKHVENHDLWMKRKMKGLKTNDPQEIADLLMEEVIRTRSGQIEDDMTVVVVRIDHNTPKWASIPVPAIFQNKQEIS
0.00045

Check the records and state kcat/KM of RsbV-P dephosphorylation (single turnover, 0.15 μM RsbV-P, 10 mM MnCl2) for SpoIIE^P752R (phosphatase domain, SpoIIE^590-827) (domain or fragment) SYRVSTGAAHAAKGGGLVSGDSYSMMELGARKYAAAISDGMGNGARAHFESNETIKLLEKILESGIDEKIAIKTINSILSLRTTDEIYSTLDLSIIDLQDASCKFLKVGSTPSFIKRGDQVMKVQASNLPIGIINEFDVEVVSEQLKAGDLLIMMSDGIFEGRKHVENHDLWMKRKMKGLKTNDPQEIADLLMEEVIRTRSGQIEDDMTVVVVRIDHNTPKWASIPVPAIFQNKQEIS
0.0035

Check the records and state kcat/KM of RsbV-P dephosphorylation (single turnover, 0.15 μM RsbV-P, 10 mM MnCl2) for SpoIIE^E675S (phosphatase domain, SpoIIE^590-827) (domain or fragment) SYRVSTGAAHAAKGGGLVSGDSYSMMELGARKYAAAISDGMGNGARAHFESNETIKLLEKILESGIDEKIAIKTINSILSLRTTDSIYSTLDLSIIDLQDASCKFLKVGSTPSFIKRGDQVMKVQASNLPIGIINEFDVEVVSEQLKAGDLLIMMSDGIFEGPKHVENHDLWMKRKMKGLKTNDPQEIADLLMEEVIRTRSGQIEDDMTVVVVRIDHNTPKWASIPVPAIFQNKQEIS
0.00058

Check the records and state kcat/KM of RsbV-P dephosphorylation (single turnover, 0.15 μM RsbV-P, 10 mM MnCl2) for SpoIIE^I723S (phosphatase domain, SpoIIE^590-827) (domain or fragment) SYRVSTGAAHAAKGGGLVSGDSYSMMELGARKYAAAISDGMGNGARAHFESNETIKLLEKILESGIDEKIAIKTINSILSLRTTDEIYSTLDLSIIDLQDASCKFLKVGSTPSFIKRGDQVMKVQASNLPIGISNEFDVEVVSEQLKAGDLLIMMSDGIFEGPKHVENHDLWMKRKMKGLKTNDPQEIADLLMEEVIRTRSGQIEDDMTVVVVRIDHNTPKWASIPVPAIFQNKQEIS
0.00028
